- measured on: HLA-B*44:05 (human)
- run description: UV peptide exchange, anti-b2m ELISA; exchange yield grade

binder | binding result
TEMSVSALY | binds
AETKQFWSA | binds
RELGVGIAL | binds
FDLNIGSAY | binds
TEIGTVIKLF | binds
KEFAFLEHSL | binds
REVAGASAL | binds
REQLDGATL | binds
WETRLHNLW | binds
EEGRIITKW | binds
METADRPEW | binds
VEGVHFVQLL | binds
GEAAAARPV | binds
VEAPHLPSF | binds
AEGPDHHSL | binds
KEIEAQEAA | binds
SQAKQITIW | binds
